# Measured on: Estrogen receptor (Homo sapiens) (UniProt P03372)
# Sequence (P03372 whole entry, looked up): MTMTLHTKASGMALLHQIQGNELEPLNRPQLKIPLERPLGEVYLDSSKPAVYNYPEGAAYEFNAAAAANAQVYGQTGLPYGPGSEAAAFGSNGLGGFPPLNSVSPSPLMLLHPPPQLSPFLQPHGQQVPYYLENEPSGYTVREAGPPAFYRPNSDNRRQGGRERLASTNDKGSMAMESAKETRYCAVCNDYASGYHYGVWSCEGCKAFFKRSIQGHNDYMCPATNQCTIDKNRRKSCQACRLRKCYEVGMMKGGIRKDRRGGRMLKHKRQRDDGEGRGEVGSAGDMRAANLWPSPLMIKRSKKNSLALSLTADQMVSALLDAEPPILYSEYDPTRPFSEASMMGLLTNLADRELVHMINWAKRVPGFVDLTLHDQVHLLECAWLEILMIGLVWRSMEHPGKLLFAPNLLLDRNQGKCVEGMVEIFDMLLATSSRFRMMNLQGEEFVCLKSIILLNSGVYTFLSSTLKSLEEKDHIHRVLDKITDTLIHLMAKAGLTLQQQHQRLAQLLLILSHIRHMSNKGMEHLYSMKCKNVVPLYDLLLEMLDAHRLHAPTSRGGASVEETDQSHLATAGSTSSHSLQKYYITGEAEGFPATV
# Protocol summary: qHTS assay to identify small molecule agonists of the estrogen receptor alpha (ER-alpha) signaling pathway using the BG1 cell line (AID 743079); further: nearly all actives have a fitted effect of over 20% in size; further: potency means the concentration at half of the fitted maximal effect
# Details: BG1Luc4E2 cells, ERE-luciferase agonist, 22 h
Results filed as inconclusive are left out. Active and inactive are the calls of the source. The call rests on the fitted dose curve; in most records, active means well fitted activation curve with a large enough effect in the repeat runs; inconclusive means weak or mixed curves, or effect the other way; inactive means no such curve, though single readings can be large or run the other way.
Readout type: Potency

Use these answered entries as a reference point.
# Molecule, Potency
records = [
    ("CC(=O)Nc1c(I)c(C(=O)N[C@H]2C(O)O[C@H](CO)[C@@H](O)[C@@H]2O)c(I)c(N(C)C(C)=O)c1I (some centres not stated)", "inactive"),
    ("CCCCCCCCCCCCCCCC(=O)OC[C@@H](NC(=O)C(Cl)Cl)[C@H](O)c1ccc([N+](=O)[O-])cc1", "inactive"),
    ("CC1CC(OC(=O)C(O)c2ccccc2)CC(C)(C)C1 (configuration not stated)", "inactive"),
    ("CC(C)[C@@H](N)C(=O)O", "inactive"),
    ("Cn1c(=O)c2c(ncn2CCOC(=O)C(C)(C)Oc2ccc(Cl)cc2)n(C)c1=O", "inactive"),
]

Fill in the blank: the reported Potency of `CC(C)Cc1ccc([C@@H](C)C(=O)NS(C)(=O)=O)cc1` is ____.
inactive

Fill in the blank: the reported Potency of `C[C@]12CC[C@@H]3c4ccc(O)cc4CC[C@H]3[C@@H]1CC[C@@H]2OP(=O)(O)O` is ____.
0.0021 µM (active)

Fill in the blank: the reported Potency of CS(=O)(=O)OCC(O)C(O)COS(C)(=O)=O (configuration not stated) is ____.
inactive

Fill in the blank: the reported Potency of `COC(=O)[C@@H](N)CS` is ____.
26.6 µM (active)

Fill in the blank: the reported Potency of CC(=O)N(CC(C)C(=O)O)c1c(I)cc(I)c(N)c1I (configuration not stated) is ____.
inactive

Fill in the blank: the reported Potency of `NCCCC[C@H](NC(=O)[C@@H]1CCCN1C(=O)[C@@H]1CSSC[C@H](N)C(=O)N[C@@H](Cc2ccccc2)C(=O)N[C@@H](Cc2ccccc2)C(=O)N[C@@H](CCC(N)=O)C(=O)N[C@@H](CC(N)=O)C(=O)N1)C(=O)NCC(N)=O` is ____.
inactive

Fill in the blank: the reported Potency of `Cn1nnnc1SCC1=C(C(=O)O)N2C(=O)[C@@H](NC(=O)[C@H](OC=O)c3ccccc3)[C@H]2SC1` is ____.
inactive

Fill in the blank: the reported Potency of `O=C(CCCCCCCCCCCCC1CCCC1)Nc1ccc(S(=O)(=O)c2ccc(NC(=O)CCCCCCCCCCCCC3CCCC3)cc2)cc1` is ____.
inactive

Fill in the blank: the reported Potency of `CC1(C)S[C@@H]2[C@H](NC(=O)[C@H](NC(=O)N3CCN(S(C)(=O)=O)C3=O)c3ccccc3)C(=O)N2[C@H]1C(=O)O` is ____.
11.9 µM (active)

Fill in the blank: the reported Potency of `CO[C@H]1C[C@@H]2CC[C@@H](C)[C@@](O)(O2)C(=O)C(=O)N2CCCC[C@H]2C(=O)O[C@H]([C@H](C)C[C@@H]2CC[C@@H](OCCO)[C@H](OC)C2)CC(=O)[C@H](C)/C=C(\C)[C@@H](O)[C@@H](OC)C(=O)[C@H](C)C[C@H](C)/C=C/C=C/C=C/1C` is ____.
inactive

Fill in the blank: the reported Potency of `c1ccc2c(CCC3CCNCC3)c[nH]c2c1` is ____.
inactive

Fill in the blank: the reported Potency of `OC[C@H]1O[C@@H](O[C@H]2[C@H](O)[C@@H](O)[C@H](O)O[C@@H]2CO)[C@H](O)[C@@H](O)[C@@H]1O` is ____.
inactive

Where these numbers come from: PubChem BioAssay (Tox21)
